The reported measurements were obtained from patent US11690860B2.

Experiment: Plasma pharmacokinetics of Compound 1 and metabolite 1-7 (LC-MS/MS) in Parts C, D and E
Format: in vivo, human
Details: human, plasma, oral, 600 mg/d, steady state; Part E, Child-Pugh A cirrhotic, 600 mg/d Compound 2 QD, n=6; read-out: Tmax SS
QUANTITY: Tmax (h)

1. C[C@@]1(F)[C@H](O)[C@@H](CO)O[C@H]1n1cnc2c(=O)[nH]c(N)nc21 [Metabolite 1-7]	6

----------
Assay: Plasma pharmacokinetics of Compound 1 and metabolite 1-7 (LC-MS/MS) in Parts C, D and E
Format: in vivo, human
Settings: human, plasma, oral, 150 mg/d, steady state; Part C, NC GT1b, 150 mg/d Compound 2 QD, n=6; read-out: Cmax SS
QUANTITY: Cmax (ng/mL)

1. C[C@@]1(F)[C@H](O)[C@@H](CO)O[C@H]1n1cnc2c(=O)[nH]c(N)nc21 [Metabolite 1-7]	81.1
